Values compiled from ChEMBL document CHEMBL1144410.

- target-entity: Adrenergic receptor alpha-1 (Rattus norvegicus, UniProt P15823+P23944+P43140)
- assay-method-text: Inhibition of [3H]prazosin binding to Alpha-1 adrenergic receptor from rat cortex
measurement-label: Ki (nM)
Numbers only, in nM.

Consider the reported Ki for these compounds:
| smiles-structure | experimental-result |
| --- | --- |
| COc1ccccc1N1CCN(CCn2c(=O)[nH]c3cc(-c4ccccc4)[nH]c3c2=O)CC1 | 0.52 |
| COc1ccccc1N1CCN(CCCn2c(=O)[nH]c3cc[nH]c3c2=O)CC1 | 28.01 |
| COc1ccc(-c2cc3[nH]c(=O)n(CCN4CCN(c5ccccc5Cl)CC4)c(=O)c3[nH]2)cc1 | 3.4 |
| O=c1[nH]c2cc[nH]c2c(=O)n1CCN1CCN(c2ccccc2Cl)CC1 | 0.94 |
| COc1ccccc1N1CCN(CCn2c(=O)[nH]c3cc(-c4ccccc4Cl)[nH]c3c2=O)CC1 | 0.76 |
| O=c1[nH]c2cc(-c3ccccc3)[nH]c2c(=O)n1CCCN1CCN(c2ccccc2Cl)CC1 | 62.37 |

For every item below, please supply its Ki.
1. COc1ccccc1N1CCN(CCn2c(=O)[nH]c3cc[nH]c3c2=O)CC1
2. O=c1[nH]c2cc(-c3ccc(Cl)cc3)[nH]c2c(=O)n1CCN1CCN(c2ccccc2Cl)CC1
3. COc1ccccc1N1CCN(CCCn2c(=O)[nH]c3cc(-c4ccc(C)cc4)[nH]c3c2=O)CC1

1. 2.31
2. 11.7
3. 47.88
